- System: Mycobacterium tuberculosis
- TEST_NAME: Antimycobacterial activity against GFP-fused Mycobacterium tuberculosis H37Rv infected in macrophages
- Assay type: functional
MIC80 vs 0.03 µM: less than gives yes; not less than gives no.

Some solved cases for reference:
{"columns": ["CHEM_SMILES", "DISCRETE_LABEL"],
 "data": [
  ["CCc1nc2cc(Cl)ccn2c1C(=O)NCc1ccc(OCc2ccc(OC(F)(F)F)cc2)cc1", "yes"],
  ["CCc1nc2ccc(F)cn2c1C(=O)NCc1ccc(OCc2ccc(OC(F)(F)F)cc2)cc1", "yes"],
  ["CCc1nc2cc(Cl)ccn2c1C(=O)NCc1ccc(N(C)c2ccc(OC(F)(F)F)cc2)cc1", "yes"],
  ["CCc1nc2ccc(Cl)cn2c1C(=O)NCc1ccc(N2CCN(Cc3ccc(OC(F)(F)F)cc3)CC2)cc1", "no"]
]}

Request: Strictly below 0.03 µM: is that where MIC80 of `CCc1nc2cc(Cl)ccn2c1C(=O)NCc1ccc(Oc2ccc(OC(F)(F)F)cc2)cc1` sits?
Result: yes

Request: Does this molecule meet the criterion MIC80 < 0.03 µM? `NNC(=O)c1ccncc1`
Result: no

Request: Could you please tell me whether MIC80 recorded for `CCc1nc2ccc(Cl)cn2c1C(=O)NCc1ccc(N2CCC(Oc3ccc(Cl)cc3)CC2)cc1` is less than 0.03 µM?
Result: yes

Request: Is the reported MIC80 for `CCc1nc2ccc(Cl)cn2c1C(=O)NCc1ccc(N2CCC(Oc3ccc(C(F)(F)F)cc3)CC2)cc1` strictly below 0.03 µM?
Result: yes

Numbers sourced from ChEMBL document CHEMBL3877282.
